Assay: Stability of compound in phosphate buffer assessed as half-life at pH 7.4
Format: physicochemical
Value Type: half-life (min)
Your answer should be a plain number; it is taken to be in min.

Specify half-life for CCOC(=O)[C@H](F)ON1C(=O)N2C[C@H]1C=C(C)[C@H]2C(=O)NCCS(N)(=O)=O and stop.
26

###

Test: Renal clearance in Sprague-Dawley rat at 10 mg/kg, iv by LC/MS/MS analysis
Format: ADME, organism-based
Settings: in vivo
Value Type: CL renal
Units required after the number.

Specify CL renal for CC1=C[C@H](C(N)=O)N2C[C@@H]1N(O[C@H](F)C(=O)O)C2=O and stop.
0.804 L/h/kg
